Experiment: Antiproliferative activity against human MIAPaCa2 cells after 72 hrs by Celltiter-Glo luminescent cell viability assay
Assay type: functional, cell-based
Conditions: MIA PaCa-2, 72 h
pIC50: −log10 of the molar value. Non-standard residues stand in square brackets, D forms with d. Residues, ends and D or L forms follow the SMILES beside them. ξ: configuration not given here. Ac6c = NC1(C(=O)O)CCCCC1; Ac5c = NC1(C(=O)O)CCCC1; ξDab = NCCC(N)C(=O)O
readout: pIC50

CC(=O)NCC(=O)N[C@@H](Cc1ccccc1)C(=O)NC1(C(=O)NCC(=O)NC2(C(=O)NC(CCN)C(=O)NC3(C(=O)NCC(=O)NC4(C(=O)N[C@@H](Cc5ccccc5)C(=O)NC5(C(=O)NCC(=O)NC6(C(=O)NCC(=O)NC(CCN)C(=O)NC7(C(=O)NC(CCN)C(=O)NC(CCN)C(=O)NC(CCN)C(=O)NC(CCN)C(N)=O)CCCCC7)CCCCC6)CCCCC5)CCCCC4)CCCCC3)CCCCC2)CCCCC1 (some centres not stated) (Ac-GF[Ac6c]G[Ac6c][ξDab][Ac6c]G[Ac6c]F[Ac6c]G[Ac6c]G[ξDab][Ac6c][ξDab][ξDab][ξDab][ξDab]-NH2) ... 5.36
CC(=O)N[C@@H](CCCCN)C(=O)N[C@@H](CCCCN)C(=O)N[C@@H](CCCCN)C(=O)N[C@@H](CCCCN)C(=O)NCC(=O)N[C@@H](Cc1ccccc1)C(=O)NC1(C(=O)NCC(=O)NC2(C(=O)N[C@@H](CCCCN)C(=O)NC3(C(=O)NCC(=O)NC4(C(=O)N[C@@H](Cc5ccccc5)C(=O)NC5(C(=O)NCC(=O)NC6(C(=O)NCC(=O)N[C@@H](CCCCN)C(=O)NC7(C(N)=O)CCCCC7)CCCCC6)CCCCC5)CCCCC4)CCCCC3)CCCCC2)CCCCC1 (Ac-KKKKGF[Ac6c]G[Ac6c]K[Ac6c]G[Ac6c]F[Ac6c]G[Ac6c]GK[Ac6c]-NH2) ... < 5.12
CC(=O)NCC(=O)N[C@@H](Cc1ccccc1)C(=O)NC1(C(=O)NCC(=O)N2Cc3ccccc3CC2C(=O)N[C@H](CCCCN)C(=O)NC2(C(=O)NCC(=O)N3Cc4ccccc4CC3C(=O)N[C@H](Cc3ccccc3)C(=O)NC3(C(=O)NCC(=O)N4Cc5ccccc5CC4C(=O)NCC(=O)N[C@H](CCCCN)C(=O)N4Cc5ccccc5CC4C(=O)N[C@H](CCCCN)C(=O)N[C@H](CCCCN)C(=O)N[C@H](CCCCN)C(=O)N[C@H](CCCCN)C(N)=O)CCCCC3)CCCCC2)CCCCC1 (some centres not stated) ... < 5.12

Let us examine a further case.
Exercise: What measured pIC50 goes with CC(=O)NCC(=O)N[C@@H](Cc1ccccc1)C(=O)NC1(C(=O)NCC(=O)NC2(C(=O)N[C@@H](CCCCN)C(=O)NC3(C(=O)NCC(=O)NC4(C(=O)N[C@@H](Cc5ccccc5)C(=O)NC5(C(=O)NCC(=O)NC6(C(=O)NCC(=O)N[C@@H](CCCCN)C(=O)NC7(C(=O)N[C@@H](CCCCN)C(=O)N[C@@H](CCCCN)C(=O)N[C@@H](CCCCN)C(=O)N[C@@H](CCCCN)C(N)=O)CCCC7)CCCCC6)CCCC5)CCCCC4)CCCC3)CCCCC2)CCCC1 (Ac-GF[Ac5c]G[Ac6c]K[Ac5c]G[Ac6c]F[Ac5c]G[Ac6c]GK[Ac5c]KKKK-NH2) ?
Key: < 5.12

---

Each item that follows carries a reported MIC.
Test system: Staphylococcus aureus
Assay: Antibacterial activity against methicillin-resistant Staphylococcus aureus USA 300 NRS 384 by two fold serial dilution method
Type: functional
Non-standard residues stand in square brackets, D forms with d. Residues, ends and D or L forms follow the SMILES beside them. ξ: configuration not given here. Ac6c = NC1(C(=O)O)CCCCC1; Ac5c = NC1(C(=O)O)CCCC1; ξOrn = NCCCC(N)C(=O)O

Illustrative cases are given below, each with its answer.
CC(=O)NCC(=O)N[C@@H](Cc1ccccc1)C(=O)NC1(C(=O)NCC(=O)NC2(C(=O)NC(CCCN)C(=O)NC3(C(=O)NCC(=O)NC4(C(=O)N[C@@H](Cc5ccccc5)C(=O)NC5(C(=O)NCC(=O)NC6(C(=O)NCC(=O)NC(CCCN)C(=O)NC7(C(=O)NC(CCCN)C(=O)NC(CCCN)C(=O)NC(CCCN)C(=O)NC(CCCN)C(N)=O)CCCCC7)CCCCC6)CCCCC5)CCCCC4)CCCCC3)CCCCC2)CCCCC1 (stereo partly drawn) (Ac-GF[Ac6c]G[Ac6c][ξOrn][Ac6c]G[Ac6c]F[Ac6c]G[Ac6c]G[ξOrn][Ac6c][ξOrn][ξOrn][ξOrn][ξOrn]-NH2) ... 22.8 µM
CC(=O)NCC(=O)N[C@H](Cc1ccccc1)C(=O)NC1(C(=O)NCC(=O)N2C(C(=O)N[C@@H](CCCCN)C(=O)NC3(C(=O)NCC(=O)N4C(C(=O)N[C@@H](Cc5ccccc5)C(=O)NC5(C(=O)NCC(=O)N6C(C(=O)NCC(=O)N[C@@H](CCCCN)C(=O)N7C(C(=O)N[C@H](CCCCN)C(=O)N[C@H](CCCCN)C(=O)N[C@H](CCCCN)C(=O)N[C@H](CCCCN)C(N)=O)CC8CCCCC87)CC7CCCCC76)CCCCC5)CC5CCCCC54)CCCCC3)CC3CCCCC32)CCCCC1 (stereo in doubt) ... > 42 µM

Let us examine a further case.
Exercise: What measured MIC goes with CC(=O)NCC(=O)N[C@@H](Cc1ccccc1)C(=O)NC1(C(=O)NCC(=O)NC2(C(=O)N[C@@H](CCCCN)C(=O)NC3(C(=O)NCC(=O)NC4(C(=O)N[C@@H](Cc5ccccc5)C(=O)NC5(C(=O)NCC(=O)NC6(C(=O)NCC(=O)N[C@@H](CCCCN)C(=O)NC7(C(=O)N[C@@H](CCCCN)C(=O)N[C@@H](CCCCN)C(=O)N[C@@H](CCCCN)C(=O)N[C@@H](CCCCN)C(N)=O)CCCC7)CCCCC6)CCCC5)CCCCC4)CCCC3)CCCCC2)CCCC1 (Ac-GF[Ac5c]G[Ac6c]K[Ac5c]G[Ac6c]F[Ac5c]G[Ac6c]GK[Ac5c]KKKK-NH2) ?
Key: > 45 µM

---

Experiment: Antiproliferative activity against human COLO205 cells after 72 hrs by Celltiter-Glo luminescent cell viability assay
Format: functional, cell-based
Conditions: COLO 205, 72 h
Non-standard residues stand in square brackets, D forms with d. Residues, ends and D or L forms follow the SMILES beside them. ξ: configuration not given here. Ac6c = NC1(C(=O)O)CCCCC1; ξDab = NCCC(N)C(=O)O
readout: IC50 (µM)
Expressed in µM, but write only the number.

Exercise: What measured IC50 goes with CC(=O)NCC(=O)N[C@@H](Cc1ccccc1)C(=O)NC1(C(=O)NCC(=O)NC2(C(=O)NC(CCN)C(=O)NC3(C(=O)NCC(=O)NC4(C(=O)N[C@@H](Cc5ccccc5)C(=O)NC5(C(=O)NCC(=O)NC6(C(=O)NCC(=O)NC(CCN)C(=O)NC7(C(=O)NC(CCN)C(=O)NC(CCN)C(=O)NC(CCN)C(=O)NC(CCN)C(N)=O)CCCCC7)CCCCC6)CCCCC5)CCCCC4)CCCCC3)CCCCC2)CCCCC1 (some centres not stated) (Ac-GF[Ac6c]G[Ac6c][ξDab][Ac6c]G[Ac6c]F[Ac6c]G[Ac6c]G[ξDab][Ac6c][ξDab][ξDab][ξDab][ξDab]-NH2) ?
Key: 6.4

---

Test: Antibacterial activity against carbapenem-resistant Klebsiella pneumoniae K6 ATCC 700603 by two fold serial dilution method
Assay type: functional, Klebsiella pneumoniae 700603
Non-standard residues stand in square brackets, D forms with d. Residues, ends and D or L forms follow the SMILES beside them. ξ: configuration not given here. Ac6c = NC1(C(=O)O)CCCCC1; Ac5c = NC1(C(=O)O)CCCC1; ξOrn = NCCCC(N)C(=O)O
readout: MIC

Illustrative cases are given below, each with its answer.
CC(=O)NCC(=O)N[C@@H](Cc1ccccc1)C(=O)NC1(C(=O)NCC(=O)N2Cc3ccccc3CC2C(=O)N[C@H](CCCCN)C(=O)NC2(C(=O)NCC(=O)N3Cc4ccccc4CC3C(=O)N[C@H](Cc3ccccc3)C(=O)NC3(C(=O)NCC(=O)N4Cc5ccccc5CC4C(=O)NCC(=O)N[C@H](CCCCN)C(=O)N4Cc5ccccc5CC4C(=O)N[C@H](CCCCN)C(=O)N[C@H](CCCCN)C(=O)N[C@H](CCCCN)C(=O)N[C@H](CCCCN)C(N)=O)CCCCC3)CCCCC2)CCCCC1 (stereo not given in full) ... > 43 µM
CC(=O)NCC(=O)N[C@@H](Cc1ccccc1)C(=O)NC1(C(=O)NCC(=O)NC2(C(=O)N[C@@H](CCCCN)C(=O)NC3(C(=O)NCC(=O)NC4(C(=O)N[C@@H](Cc5ccccc5)C(=O)NC5(C(=O)NCC(=O)NC6(C(=O)NCC(=O)N[C@@H](CCCCN)C(=O)NC7(C(=O)N[C@@H](CCCCN)C(=O)N[C@@H](CCCCN)C(=O)N[C@@H](CCCCN)C(=O)N[C@@H](CCCCN)C(N)=O)CCCC7)CCCCC6)CCCC5)CCCCC4)CCCC3)CCCCC2)CCCC1 (Ac-GF[Ac5c]G[Ac6c]K[Ac5c]G[Ac6c]F[Ac5c]G[Ac6c]GK[Ac5c]KKKK-NH2) ... 44.8 µM
CC(=O)N[C@@H](CCCCN)C(=O)N[C@@H](CCCCN)C(=O)N[C@@H](CCCCN)C(=O)N[C@@H](CCCCN)C(=O)NCC(=O)N[C@@H](Cc1ccccc1)C(=O)NC1(C(=O)NCC(=O)NC2(C(=O)N[C@@H](CCCCN)C(=O)NC3(C(=O)NCC(=O)NC4(C(=O)N[C@@H](Cc5ccccc5)C(=O)NC5(C(=O)NCC(=O)NC6(C(=O)NCC(=O)N[C@@H](CCCCN)C(=O)NC7(C(N)=O)CCCCC7)CCCCC6)CCCCC5)CCCCC4)CCCCC3)CCCCC2)CCCCC1 (Ac-KKKKGF[Ac6c]G[Ac6c]K[Ac6c]G[Ac6c]F[Ac6c]G[Ac6c]GK[Ac6c]-NH2) ... 43.8 µM
CC(=O)NCC(=O)N[C@@H](Cc1ccccc1)C(=O)NC1(C(=O)NCC(=O)NC2(C(=O)NC(CCCN)C(=O)NC3(C(=O)NCC(=O)NC4(C(=O)N[C@@H](Cc5ccccc5)C(=O)NC5(C(=O)NCC(=O)NC6(C(=O)NCC(=O)NC(CCCN)C(=O)NC7(C(=O)NC(CCCN)C(=O)NC(CCCN)C(=O)NC(CCCN)C(=O)NC(CCCN)C(N)=O)CCCCC7)CCCCC6)CCCCC5)CCCCC4)CCCCC3)CCCCC2)CCCCC1 (stereo not given in full) (Ac-GF[Ac6c]G[Ac6c][ξOrn][Ac6c]G[Ac6c]F[Ac6c]G[Ac6c]G[ξOrn][Ac6c][ξOrn][ξOrn][ξOrn][ξOrn]-NH2) ... 22.8 µM

Let us examine a further case.
Exercise: What measured MIC goes with CC(=O)NCC(=O)N[C@H](Cc1ccccc1)C(=O)NC1(C(=O)NCC(=O)N2C(C(=O)N[C@@H](CCCCN)C(=O)NC3(C(=O)NCC(=O)N4C(C(=O)N[C@@H](Cc5ccccc5)C(=O)NC5(C(=O)NCC(=O)N6C(C(=O)NCC(=O)N[C@@H](CCCCN)C(=O)N7C(C(=O)N[C@H](CCCCN)C(=O)N[C@H](CCCCN)C(=O)N[C@H](CCCCN)C(=O)N[C@H](CCCCN)C(N)=O)CC8CCCCC87)CC7CCCCC76)CCCCC5)CC5CCCCC54)CCCCC3)CC3CCCCC32)CCCCC1 (stereo in doubt) ?
Key: > 42 µM
